# Test system: isolated rat liver mitochondria
# Measurement Protocol: Oxygen consumption, Clark-type oxygen electrode
# Assay type: biochemical
# Recorded Conditions: 0.8 µM
Recorded Endpoint: II-sub, % of control (O2 consumption rate)

CC[C@@H](C(=O)[C@@H](C)[C@@H](O)[C@H](C)CCc1ccc(C)c(O)c1C(=O)O)[C@H]1O[C@](CC)([C@H]2CC[C@](O)(CC)[C@H](C)O2)C[C@@H]1C [Lasalocid sodium, reference compound]: 115 (23.6) % of control
CCOCn1c(-c2ccc(Cl)cc2)c(C#N)c(Br)c1C(F)(F)F: 180 (37.6) % of control

## Input Query II-sub, % of control (O2 consumption rate) on isolated rat liver mitochondria for O=C(Nc1ccc(Cl)cc1)Nc1ccc(Cl)c(Cl)c1
## Output 128 (31.4) % of control

## Input Please provide the recorded II-sub, % of control (O2 consumption rate) for O=C(Nc1ccccc1)Nc1cnns1 , tested on isolated rat liver mitochondria.
## Output 106 (26.1) % of control

## Input Requested read-out II-sub, % of control (O2 consumption rate), target or system isolated rat liver mitochondria, entry O=C1c2ccccc2C(=O)C1C(=O)C(c1ccccc1)c1ccc(Cl)cc1 (centres unmarked)
## Output 125 (26.1) % of control

* * *

# System: rat primary hepatocytes
# Measurement Protocol: MMP assay in rat primary hepatocytes
# Recorded Conditions: Rattus norvegicus, Hepatocyte, read-out: MMP assays IC50 (µM) Rat Hepatocytes
Recorded Endpoint: IC50 (µM)
The response must be a number in µM with no trailing unit.

// below: answered compounds
Cc1ccc2c(c1N)C(=O)c1ccccc1C2=O: 5.28
O=C(Nc1ccccc1)Nc1cnns1: 4.56
NNc1nc(-c2ccc([N+](=O)[O-])cc2)cs1 [2-Hydrazino-4-(4-nitrophenyl)thiazole]: 7.9

## Input Test system rat primary hepatocytes; read-out IC50; what value for N#Cc1c2ccccc2cc2ccccc12 ?
## Output 18

## Input What measured IC50 is associated with COc1ccc2cc3[n+](cc2c1OC)CCc1cc2c(cc1-3)OCO2 [Berberine chloride] on rat primary hepatocytes?
## Output 6.03

## Input Given the entry C=C1CC[C@H](O)C/C1=C/C=C1\CCC[C@]2(C)[C@@H]([C@H](C)CCCC(C)(C)O)CC[C@@H]12 , what IC50 was observed with rat primary hepatocytes?
## Output 14.2

## Input Request body: readout IC50, system rat primary hepatocytes, query Cc1ccc2c(c1)C(=O)c1ccccc1C2=O . Return the value.
## Output 5.97

## Input Observed IC50 on rat primary hepatocytes for CC(=Cc1ccccc1)[N+](=O)[O-] , please.
## Output 25.9

## Input // fetch rat primary hepatocytes IC50 for O=c1cc(-c2ccccc2)oc2cc(O)cc(O)c12
## Output 30.6

* * *

# Test system: HepG2 cells
# Measurement Protocol: cells
# Recorded Conditions: Homo sapiens, HepG2, 1 h, read-out: HepG2 IC50 Glucose (MMP)
Recorded Endpoint: log10 of IC50 (log10 of the value in µM)
Note: values are log10 of IC50 expressed in µM.

Some compounds with known log10 of IC50 results, for comparison:
C=C(c1ccc(C(=O)O)cc1)c1cc2c(cc1C)C(C)(C)CCC2(C)C [Bexarotene, reference compound]: 1.70
N#CC(c1ccc(Cl)cc1)c1c(Cl)cc(-n2ncc(=O)[nH]c2=O)cc1Cl (stereo not shown) [Diclazuril, reference compound]: 1.58

## Input State the recorded log10 of IC50 for this entry: O=C(Nc1ccccc1)Nc1cnns1
## Output 1.08

## Input Recorded log10 of IC50 for CCc1cc(Cc2cc(CC)cc(C(C)(C)C)c2O)c(O)c(C(C)(C)C)c1 , please?
## Output 0.73

## Input Any idea what its log10 of IC50 is? The compound is O=C1c2c(O)ccc([N+](=O)[O-])c2C(=O)c2c([N+](=O)[O-])ccc(O)c21 [1,8-Dihydroxy-4,5-dinitroanthraquinone]
## Output 0.25

## Input Data request, read-out log10 of IC50, for NNc1nc(-c2ccccc2)cs1 [2-Hydrazino-4-phenylthiazole]
## Output 1.57

## Input So what does the record say about log10 of IC50 for Nc1ccc(N)c2c1C(=O)c1ccccc1C2=O ?
## Output -0.11

## Input Item under review: O=C(Nc1ccc([N+](=O)[O-])cc1Cl)c1cc(Cl)ccc1O [Niclosamide, reference compound] . Reported log10 of IC50?
## Output -0.06

## Input Name the reported log10 of IC50 value associated with the compound O=C(Nc1ccc(Oc2ccc(Cl)cc2)c(Cl)c1)c1cc(I)cc(I)c1O [Rafoxanide, reference compound]
## Output 1.32

## Input Fill in the blank: the reported log10 of IC50 of Nc1ccc2c(c1)C(=O)c1ccccc1C2=O is ____.
## Output 0.82

* * *

# Tested on: rat primary hepatocytes
# Measurement Protocol: MMP assay in rat primary hepatocytes
# Recorded Conditions: rat hepatocytes; mean ± SD of three experiments
Recorded Endpoint: MMP assays efficacy (%) Rat Hepatocytes
Give a bare numeral; the unit % is implied.

CCOC(=O)c1ccccc1C(=C1C=C(Br)C(=O)C(Br)=C1)c1cc(Br)c(O)c(Br)c1: -101

## Input Quick one: MMP assays efficacy (%) Rat Hepatocytes for Nc1cc(Cl)c([N+](=O)[O-])cc1O ?
## Output -47

* * *

Item-by-item account of LUM: mean difference in luminescence (ATP content) relative to plate controls
# Tested on: Caenorhabditis elegans strain PE255
# Measurement Protocol: In vivo C. elegans ATP status assay
# Recorded Conditions: 1 µM
Reply briefly: the number, and no unit.

CC(C)[C@@H]1NC(=O)[C@H](C)OC(=O)[C@@H](C(C)C)NC(=O)[C@@H](C(C)C)OC(=O)[C@H](C(C)C)NC(=O)[C@H](C)OC(=O)[C@@H](C(C)C)NC(=O)[C@@H](C(C)C)OC(=O)[C@H](C(C)C)NC(=O)[C@H](C)OC(=O)[C@@H](C(C)C)NC(=O)[C@@H](C(C)C)OC1=O: -0.06335
CC[C@@H](C(=O)[C@@H](C)[C@@H](O)[C@H](C)CCc1ccc(C)c(O)c1C(=O)O)[C@H]1O[C@](CC)([C@H]2CC[C@](O)(CC)[C@H](C)O2)C[C@@H]1C [Lasalocid sodium, reference compound]: 0.04489
O=C(Nc1ccccc1)Nc1cnns1: 0.1041
O=C1CCC(N2C(=O)c3ccccc3C2=O)C(=O)N1 (stereo not drawn) [Thalidomide]: 0.01645
O=C(Nc1ccc(Oc2ccc(Cl)cc2)c(Cl)c1)c1cc(I)cc(I)c1O [Rafoxanide, reference compound]: -0.0514

Then this molecule:
## Input Fill blank: measured LUM: mean difference in luminescence (ATP content) relative to plate controls of the molecule O=C1c2ccccc2C(=O)C1C(=O)C(c1ccccc1)c1ccc(Cl)cc1 (stereo not drawn) is ____.
## Output 0.2624

* * *

# System: rat primary hepatocytes
Counter-ions that a name gives are not always drawn.
One threshold, -70%, splits the recorded MMP assays efficacy (%) Rat Hepatocytes values: lower ones are Yes, equal or higher ones are No.

O=C(c1ccc(OCCN2CCCCC2)cc1)c1c(-c2ccc(O)cc2)sc2cc(O)ccc12 [Raloxifene hydrochloride]: Yes
Cc1cc(NC(=O)C2=C(O)c3ccccc3S(=O)(=O)N2C)no1 [Isoxicam]: No
O=C1CN(/N=C/c2ccc(-c3ccc([N+](=O)[O-])cc3)o2)C(O)=N1 [Dantrolene sodium]: Yes
Cc1cc(C)c(/C=C2\C(=O)Nc3ccccc32)[nH]1 [SU-5416]: Yes

## Input Identify whether the compound O=C1C2(Cl)C3(Cl)C4(Cl)C(Cl)(Cl)C5(Cl)C3(Cl)C1(Cl)C5(Cl)C24Cl (stereo not drawn) [Kepone] records MMP assays efficacy (%) Rat Hepatocytes below -70%.
## Output Yes

* * *

# System: hNSC
# Measurement Protocol: MMP assay in human neural stem cells (hNSC)
# Format: cell-based
# Recorded Conditions: 1 h treatment; fresh re-sourced stocks; mean±SD of three experiments; read-out: hNSC IC50 (MMP)
Recorded Endpoint: pIC50
// pIC50 is dimensionless: -log10 of concentration (M)

## Input Fill blank: measured pIC50 of the molecule CCN1C(=CC=Cc2ccc3ccccc3[n+]2CC)C=Cc2ccccc21.[Cl-] [Pinacyanol chloride] is ____.
## Output 7.40

* * *

Recorded measurements of I-ADP, % of control (O2 consumption rate), one per entry
# Test system: isolated rat liver mitochondria
# Measurement Protocol: Oxygen consumption, Clark-type oxygen electrode
# Format: biochemical
# Recorded Conditions: 0.16 µM

Look over these answered cases.
CCCCCC[C@H]1C(=O)O[C@H](C)[C@H](NC(=O)c2cccc(NC=O)c2O)C(=O)O[C@@H](C)[C@@H]1OC(=O)CC(C)C [Antimycin A, reference compound]: 17 (6.4) % of control
CCC(C)c1cc([N+](=O)[O-])cc([N+](=O)[O-])c1O (stereo not shown): 106 (46.2) % of control
O=C(Nc1ccccc1)Nc1cnns1: 93 (51.1) % of control

Now for a further compound.
## Input I-ADP, % of control (O2 consumption rate) lookup needed for N#CC(C#N)=NNc1ccc(OC(F)(F)F)cc1 [FCCP, reference compound] , thanks.
## Output 115 (56.7) % of control
